Reference for the values: patent US20240246964A1

Molecular target: PD-L1 His protein / PD-1 Fc protein (Homo sapiens (Human))
Sequence (Q9NZQ7 19-238): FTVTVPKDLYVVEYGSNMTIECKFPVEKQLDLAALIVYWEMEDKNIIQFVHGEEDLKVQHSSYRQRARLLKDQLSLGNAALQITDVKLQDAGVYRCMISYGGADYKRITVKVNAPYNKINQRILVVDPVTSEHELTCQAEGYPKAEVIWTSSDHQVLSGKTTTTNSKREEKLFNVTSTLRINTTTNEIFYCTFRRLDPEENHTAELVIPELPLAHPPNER
Test: HTRF Assay (PD-1/PD-L1 interaction)
Format: binding
Conditions: PD-L1 His 6 nM, PD-1 Fc 6 nM

SMILES ENTRY | IC50, nM
COc1cc(-c2nccc(-c3cccc(-c4ccc(CNC5CCN(C(C)=O)CC5)c(OC)n4)c3Cl)c2Cl)ccc1CN1CC2(COC2)C1 | 1.43
COc1cc(-c2nccc(-c3cccc(-c4ccc5c(CNCCO)cn(C)c5n4)c3Cl)c2Cl)ccc1CNC[C@@H]1CCC(=O)N1 | 0.5
COc1cc(-c2cccc(-c3ccnc(-c4cnc(CNC5CCOCC5)c(OC)c4)c3Cl)c2Cl)cnc1CNC1CCOCC1 | 18.5
COc1nc(-c2ccnc(-c3cccc4c3CC[C@@H]4Oc3nc(OC)c(CNC[C@H](C)O)cc3C(F)(F)F)c2Cl)ccc1CNC[C@@H]1CCC(=O)N1 | 0.542
COc1nc(-c2cccc(-c3ccnc(-c4cc(OC)c5nc(CNC[C@@H](C)O)nn5c4)c3Cl)c2Cl)ccc1CNC1CCN(C(C)=O)CC1 | 0.2
COc1cc(-c2nccc(-c3cccc(-c4ccc(CNC5CCOCC5)c(OC)n4)c3Cl)c2Cl)ccc1CN(C)C1CCN(C(C)=O)CC1 | 5.94
COc1cc(-c2nccc(-c3cccc(-c4cnc(CNC5CCN(C(C)=O)CC5)c(OC)n4)c3Cl)c2Cl)ccc1CNC1CCN(C(C)=O)CC1 | 0.907
COc1cc(-c2nccc(-c3cccc(-c4ccc(CNC5CCN(c6ccccc6)CC5)c(OC)n4)c3Cl)c2Cl)ccc1CNC1CCN(c2ccccc2)CC1 | 7.78
COc1nc(-c2ccnc(-c3cccc(NC(=O)c4cn(C)c(=O)n(C)c4=O)c3Cl)c2Cl)ccc1CNC[C@H](C)O | 0.31
COc1nc(-c2ccnc(-c3cccc4c3CC[C@@H]4Oc3nc(OC)c(CNC4(C(=O)O)CC4)cc3C(F)(F)F)c2Cl)ccc1CNC[C@@H]1CCC(=O)N1 | 0.305
COc1nc(-c2cccc(-c3ccnc(-c4cc(Cl)c5c(c4)CCN(CC4COC4)C5)c3Cl)c2Cl)ccc1CNC[C@@H]1CCC(=O)N1 | 1.41
COc1cc(-c2nccc(-c3cccc(NC(=O)c4ccc(CNC[C@H](C)O)cn4)c3Cl)c2Cl)ccc1CNC[C@H](C)O | 0.02
COc1cc(-c2nccc(-c3cccc(-c4ccc(CN5CC(C)(O)C5)c(OC)n4)c3Cl)c2Cl)ccc1CN1CC(C)(O)C1 | 1.38
CNCc1ccc(-c2cccc(-c3ccnc(-c4cc(CN5CC(CC(=O)O)C5)cc(OC)c4)c3Cl)c2Cl)nc1OC | 3.32
COc1nc(-c2cccc(-c3ccnc(-c4ccc(CN5CC6(CNC(=O)C6)C5)c(OC(F)F)c4)c3Cl)c2Cl)ccc1CNC1CCN(C(C)=O)CC1 | 1.8
COc1cc(-c2nccc(-c3cccc(-c4ccc(CNC[C@@H]5CCC(=O)N5)c(OC)n4)c3Cl)c2Cl)cc(F)c1CNC[C@@H]1CCO1 | 11.2
COc1cc(-c2nccc(-c3cccc(-c4ccc(CN[C@@H]5CCC(=O)NC5)c(OC)n4)c3Cl)c2Cl)ccc1CNC1CCN(C(C)=O)CC1 | 0.79
COc1nc(-c2cccc(-c3ccnc(-c4cc5c(=O)n(C)c(CN6CC7(CC(O)C7)C6)nn5c4)c3Cl)c2Cl)ccc1CNC[C@@H]1CCC(=O)N1 | 0.04
COc1cc(-c2nccc(-c3cccc(-c4ccc(CN5CC6(CNC(=O)C6)C5)c(OC)n4)c3Cl)c2Cl)cnc1CNC1CCN(C(C)=O)CC1 | 0.35
CCC(=O)N1CCC(NCc2ccc(-c3nccc(-c4cccc(-c5ccc(CNC6CCN(C(=O)CC)CC6)c(OC)n5)c4Cl)c3Cl)cc2OC)CC1 | 6.41
Cc1c(NC(=O)c2ccc(CNCCO)cn2)cccc1-c1ccnc(-c2ccc(CNC[C@@H]3CCC(=O)N3)c(OC(F)F)c2)c1Cl | 0.76
COc1cc(-c2nccc(-c3cccc(-c4ccc(CNC5CCN(C(=O)c6ccco6)CC5)c(OC)n4)c3Cl)c2Cl)ccc1CNC1CCN(C(=O)c2ccco2)CC1 | 1.86
COC(=O)[C@H](CCO)NCc1ncc(-c2nccc(-c3cccc(-c4ccc(CNC[C@@H]5CCC(=O)N5)c(OC)n4)c3Cl)c2Cl)cc1OC | 2.97
COc1cc(-c2nccc(-c3cccc(-c4ccc5c(CNC6CCN(C(C)=O)CC6)cn(C)c5n4)c3Cl)c2Cl)ccc1CN1CC2(CNC(=O)C2)C1 | 0.3
